STUDY SYSTEM: phosphorylation levels of ERK1/2 in AsPC-1 (homozygous KRAS-G12D) cells (Homo sapiens, UniProt P01116, G12D)
Sequence (P01116 1-186 G12D): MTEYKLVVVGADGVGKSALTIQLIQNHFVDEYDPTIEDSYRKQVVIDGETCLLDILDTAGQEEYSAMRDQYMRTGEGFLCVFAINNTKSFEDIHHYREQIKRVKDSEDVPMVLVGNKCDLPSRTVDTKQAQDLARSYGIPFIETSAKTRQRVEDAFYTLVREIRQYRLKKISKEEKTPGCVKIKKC
ASSAY DETAILS: Cellular phospho-ERK assay in AsPC-1 cells (Alpha Screen), assay medium without fetal bovine serum;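 note: signal taken as phospho-ERK over total ERK per well, both detected in one multiplex bead assay, EC50 from four-parameter logistic fit of dose-response curves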
CONDITION NOTES: phospho-ERK AlphaScreen, 18 h
*1 amine or outer side, *2 acyl side, *3 side chain or, on linkers, in order; H or OH if unused. Where a SMILES comes first, the peptide text is derived from it. Bridges are numbered along the chain shown (N, C = ends). [ ]: non-standard residue; d: D form. Phe(4-guanidino) = N=C(N)Nc1ccc(C[C@H](N)C(=O)O)cc1; Ala(pyrimidin-5-yl) = N[C@@H](Cc1cncnc1)C(=O)O; X36 = CN([C@@H](Cc1cnn(C)c1)C(=O)[*:2])[*:1]; X25 = O=C([C@H](Cc1ccc(F)nc1)N[*:1])[*:2]; X24 = O=C([C@H](Cc1ccncc1Cl)N[*:1])[*:2]; X11 = CC(C)(F)CC[C@H](N[*:1])C(=O)[*:2]; X32 = CS(=O)(=O)CCCN(CC(=O)[*:2])[*:1]; Phe(2-F) = N[C@@H](Cc1ccccc1F)C(=O)O; X1 = O=C(C12CC(CN[*:1])(C1)C2)[*:2]; Ala(cPr) = N[C@@H](CC1CC1)C(=O)O; NMeF = CN[C@@H](Cc1ccccc1)C(=O)O; PhLac = O=C(O)[C@@H](O)Cc1ccccc1; 3Pal = N[C@@H](Cc1cccnc1)C(=O)O; Ahp(2) = CCCCC[C@H](N)C(=O)O; Cba = N[C@@H](CC1CCC1)C(=O)O; αMeC = C[C@](N)(CS)C(=O)O; NMeA = CN[C@@H](C)C(=O)O; Nle = CCCC[C@H](N)C(=O)O; Nva = CCC[C@H](N)C(=O)O
Consider the following molecules; for each one, report its EC50.

Would you please look over these solved cases?
>  <MOLECULE>
CCCC[C@@H]1NC(=O)[C@H](Cc2cccnc2)NC(=O)[C@H](CCCNC(=N)N)NC(=O)[C@H](Cc2ccccc2)OC(=O)C23CC(CNC(=O)[C@H](Cc4ccccc4)N(C)C(=O)[C@H](CCCC)NC(=O)[C@H](Cc4ccccc4F)NC1=O)(C2)C3 [compound 212] (cyclo([PhLac]R[3Pal][Nle][Phe(2-F)][Nle][NMeF][X1]))

>  <TEST VALUE>
39.4 µM

$$$$
>  <MOLECULE>
CCCC[C@@H]1NC(=O)[C@H](Cc2cccnc2)NC(=O)[C@H](C)N(C)C(=O)[C@H](Cc2ccccc2)OC(=O)C23CC(CNC(=O)[C@H](Cc4cnn(C)c4)N(C)C(=O)[C@H](CCCC)NC(=O)[C@H](Cc4ccccc4F)NC1=O)(C2)C3 [compound 403] (cyclo([3Pal][Nle][Phe(2-F)][Nle][X36][X1][PhLac][NMeA]))

>  <TEST VALUE>
18.6 µM

$$$$

Please look at the items below and tell me EC50 for each one, in order.
1. CCCCC[C@@H]1NC(=O)[C@H](Cc2ccc(OC)cc2)NC(=O)[C@H](CC2CCC2)NC(=O)[C@H](Cc2cnn(C)c2)NC(=O)[C@H](CCCNC(=N)N)NC(=O)[C@H](Cc2ccccc2)NC(=O)CSC[C@@](C)(C(N)=O)NC(=O)[C@H](Cc2ccccc2)N(C)C1=O [compound 372]
2. CCCCC[C@@H]1NC(=O)[C@H](Cc2ccc(OC)cc2)NC(=O)[C@H](CC2CCC2)NC(=O)[C@H](Cc2ccc(NC(=N)N)cc2)NC(=O)CN(CCCS(C)(=O)=O)C(=O)[C@H](Cc2ccccc2)NC(=O)CSC[C@@](C)(C(N)=O)NC(=O)[C@H](Cc2ccccc2)N(C)C1=O [compound 389] ({CH2CO}-F[X32][Phe(4-guanidino)][Cba]Y(Me)[Ahp(2)][NMeF][αMeC]-NH2; thioether N-8)

1. > 50.8 µM
2. > 50.8 µM

Please look at the items below and tell me EC50 for each one, in order.
1. CCCC[C@@H]1NC(=O)[C@H](Cc2ccc(F)nc2)NC(=O)[C@H](C)N(C)C(=O)[C@H](Cc2ccccc2)OC(=O)C23CC(CNC(=O)[C@H](Cc4ccccc4)N(C)C(=O)[C@H](CCC)NC(=O)[C@H](Cc4ccccc4F)NC1=O)(C2)C3 [compound 234] (cyclo([NMeA][X25][Nle][Phe(2-F)][Nva][NMeF][X1][PhLac]))
2. C[C@H]1C(=O)N[C@@H](Cc2cncnc2)C(=O)N[C@@H](CC2CC2)C(=O)N[C@@H](Cc2ccncc2Cl)C(=O)N[C@@H](CCC(C)(C)F)C(=O)N(C)[C@@H](Cc2ccccc2)C(=O)NCC23CC(C2)(C3)C(=O)O[C@@H](Cc2ccccc2)C(=O)N1C [compound 299] (cyclo([Ala(cPr)][X24][X11][NMeF][X1][PhLac][NMeA][Ala(pyrimidin-5-yl)]))

1: > 50.8 µM; 2: > 50.8 µM
